In this section, each of the sequences is paired with its reported PBM binding z-score.
tested on: THRa:RXRa (NR concentration 90 nM, RXRa partner concentration 90 nM); assay: PBM binding z-score (relative to random genomic background probes); higher = stronger binding; sequences stand for … in GC…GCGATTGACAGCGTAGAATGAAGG
measured_parameter: PBM binding z-score

> print(dat)
                    construct.sequence   measured.parameter  observed.result
 1  ATCTCTAGGTAAAGCTAGTTCAGTGAATGCAAAT  PBM binding z-score             1.15
 2  CCGTCTGGGGCATAAGGTTACCATAAGCCAGCCC  PBM binding z-score             2.17
 3  CCAGACAGGTGAAAGGTAACTCTGTCTGGTACGC  PBM binding z-score             1.01
 4  GGAACGAAGGCAAAGTTGATAGCATCTGTCGACG  PBM binding z-score           -0.716
 5  CCTACTGGGCCAAAGTTCATTGATTCCAATGCTC  PBM binding z-score             1.44
 6  TATACAGGGTCAAAGGCCAGAGTCCGAATGTCGA  PBM binding z-score             3.62
 7  GGAACGAGGGCAAGTTCATAGCAGAGTTTGATGG  PBM binding z-score             2.35
 8  TGACTGAGGTTATAAGATCAGGGAACGTTGCAAA  PBM binding z-score             1.58
 9  TCGGGTAGGTTAGTCGGGGCATTCAGCCAACATA  PBM binding z-score             1.57
10  GCATAGAGGTAATACAAGGTGAAAGTCCGATTGT  PBM binding z-score             4.44
11  CGAACTAGGTCGTTGACAGGACAGTGAATAGTAA  PBM binding z-score             1.33
12  GCTCGGAGCACAAGGTCAGAGCTTTGTCCGTAGA  PBM binding z-score             2.75
13  TGAATGAGCTTATAAGATCAGGGAACGTTGCAAA  PBM binding z-score           -0.371
14  GGAGCGAGGGCAAGTTGATAGCAGAGTTTGATGG  PBM binding z-score            0.876
15  TAGCCTAGGTCATGGGCCAGTAAACCACGCGAAC  PBM binding z-score             3.25
16  CAAACTAGGTCAAGAGGTCAGAGTCCGCTTCCCG  PBM binding z-score             3.88
17  CCTGCTACGTCATGGTCAGCTAATCTACAGTATG  PBM binding z-score           -0.381
18  CCTACTGGGCCAAGGACATTGATCAGTCAAAGCA  PBM binding z-score             1.29
19  GCTAGCAGCCCATTTGGGTCACTCAATGACGGGC  PBM binding z-score             1.24
20  CGAACTAGGTCAAGGACAGAGAATCTCCGCACGC  PBM binding z-score             2.74
21  CATCCAAGGTCAAGGTCAGTGAAAGAGACTCGAA  PBM binding z-score             4.48
22  ATATGTATGTTATCGGGTCATTCAGTTTGCGCAT  PBM binding z-score             3.26
23  CAAACTAGGTCACCGGAAGGTCAAAGTGCGCATG  PBM binding z-score             4.72
24  TCTTGTAGATCACGCAGGTTAAGAAAGCCTGAGT  PBM binding z-score            0.601
25  CGTCCAAGGTCAGAGAGGTAAGTGAATGCCGAGT  PBM binding z-score              3.5
26  GCGACTGGGGCATCAGCCGGTTACCATAACTTAA  PBM binding z-score          -0.0849
27  CCTATTAGTTGACCATAAGGGCAACAGAAGCTCG  PBM binding z-score             1.76
28  CCTTACGGGTCACTCCAGGTTATCGCATCGGAGT  PBM binding z-score             5.13
29  GATACAGGGTCAGCTAGAGGCCAGAGCATGGAAA  PBM binding z-score             3.01
30  CCTTATGGGTCACGAGGTTATAGCACGACGAGCG  PBM binding z-score              3.3
31  CAAACTAGGTCAAGAGGTCAAAGCCCGCTTCCCG  PBM binding z-score             4.46
32  TCTAGCACGCCAGAGGGTCACTCAAGAGGTACGG  PBM binding z-score             1.48
33  GCTACAGGGTCAAGGCCAGAGTACGCGTATTGAT  PBM binding z-score             3.42
34  TCAGACAGGTGAAGGTAACACAGGTACGCAGTCG  PBM binding z-score             1.36
35  TCTAATAGTTGATTAGGGCAACCGAAACAGCGGA  PBM binding z-score            0.551
36  TGTCAAAGTACAAAGGTAACGTAAGTATCCACAC  PBM binding z-score             1.33
37  CGTCCAAGGTCAAGGTCAGTGCAAGAGACTCGAA  PBM binding z-score             4.21
38  ATCGAAAGGTCGTGTGGTGAGTATACAGAAAGGC  PBM binding z-score             2.39
39  TAGCCTAGGTCAGATCGGGCCGGTATACGCTATA  PBM binding z-score             3.11
40  TAGCCTAGGTGATGGGCCAGTATACCACGCGAAC  PBM binding z-score           -0.153
41  CCGACTGGGGCAAAGGTAACCATACTCAGTACGA  PBM binding z-score            0.563
42  TCTTGTACATCAAGCAGGTTAAGAAAGCCTGAGT  PBM binding z-score            0.334
43  CCAGACAGGTGAAAGGTGACTCAGTCTGGTACGC  PBM binding z-score             1.44
44  CCTCGGAGGACAACATGAGGTCAGAGCTGCCAGA  PBM binding z-score             4.08
45  AGAACGAGGGCAATGAGTTGATACCACGGGTGGC  PBM binding z-score            0.993
46  CCAGACAGGTGAAAGGTAACTGAGTCTGGTACGC  PBM binding z-score            0.931
47  TCTTGTAGATCAAAGTTTAAGAAAGCCGAAGCCT  PBM binding z-score           0.0453
48  TATACAGGGTCAAAGGCCAGAGTACGAATGTCGA  PBM binding z-score             3.76
49  ACTAGCAGGCCAAGTATGGGTCACTCAAACAAAG  PBM binding z-score            0.976
50  TCTTGTAGACCAACAGGAGGTTAAGAAAGATCGA  PBM binding z-score            0.789
51  CCGAGTAGGTTGTGGGGCATTCAGGCAACGGTGA  PBM binding z-score            0.119

----------
system: PXR homodimer (NR concentration 270 nM); experiment: PBM binding z-score (relative to random genomic background probes); higher = stronger binding; sequences stand for … in GC…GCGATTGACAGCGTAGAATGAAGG
measured_parameter: PBM binding z-score

> print(dat)
                    construct.sequence                                   target   measured.parameter  observed.result
 1  CCTATTAGTTGACCATAAGGGCTACCGAAGCTCG  PXR homodimer (NR concentration 270 nM)  PBM binding z-score            0.632
 2  ATCTCTAAGTAAGACTCAGTTCAGTGAAGAACGC  PXR homodimer (NR concentration 270 nM)  PBM binding z-score             1.83
 3  CCGGCTGGGGCAAAGGTTACCATACTCAGTACGA  PXR homodimer (NR concentration 270 nM)  PBM binding z-score           -0.422
 4  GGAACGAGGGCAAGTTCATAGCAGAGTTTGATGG  PXR homodimer (NR concentration 270 nM)  PBM binding z-score             5.88
 5  TCTAGTTGCTCACGGAGGTCACACACGACGGGTA  PXR homodimer (NR concentration 270 nM)  PBM binding z-score            0.832
 6  TCTGCTAGGTCAACGATGCTCAGCTAATCTGCTA  PXR homodimer (NR concentration 270 nM)  PBM binding z-score            -1.03
 7  AGAATGAGGTTATTAAGATCTGGGAATTGCGGTC  PXR homodimer (NR concentration 270 nM)  PBM binding z-score            0.379
 8  TCTCGGAGGACACGAAGGTCAGAGTTTTCCAGAG  PXR homodimer (NR concentration 270 nM)  PBM binding z-score             1.37
 9  ACTCGGAGGACCAAGGTCAGAGCTACGCCAGTGA  PXR homodimer (NR concentration 270 nM)  PBM binding z-score           0.0514
10  TATACAGGGTCAAAGGCCAGAGTTCGAATGTCGA  PXR homodimer (NR concentration 270 nM)  PBM binding z-score             2.54
11  TCTATCAGTTGAAGGGCAACCGACGAGTCCGTTT  PXR homodimer (NR concentration 270 nM)  PBM binding z-score            0.541
12  GCATATAGGTAATACAAGGTGAAAGTGCGATTGT  PXR homodimer (NR concentration 270 nM)  PBM binding z-score            0.452
13  CGAACTAGGTCAGAACAGGACAGTGAGGGATGAT  PXR homodimer (NR concentration 270 nM)  PBM binding z-score            0.211
14  GGAACGAGTGCATTCGAGTTGATAGCATGGCGAT  PXR homodimer (NR concentration 270 nM)  PBM binding z-score             3.49
15  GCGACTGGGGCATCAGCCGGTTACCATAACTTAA  PXR homodimer (NR concentration 270 nM)  PBM binding z-score           -0.327
16  ACTCAAAGTTCACTAGGTAACGTAAGATTCAGCT  PXR homodimer (NR concentration 270 nM)  PBM binding z-score             3.09
17  GCGACTGTGGCAAAGCAGGTTACCATAAGGTTGG  PXR homodimer (NR concentration 270 nM)  PBM binding z-score           -0.793
18  TCTGCTAGGTCAACGATGGTCAGCTAATCTGCTA  PXR homodimer (NR concentration 270 nM)  PBM binding z-score           -0.856
19  GGACCAAGGTGAATAGGTCGTTGATGAGTAGGCG  PXR homodimer (NR concentration 270 nM)  PBM binding z-score            0.241
20  TGAACGAGGTTAAAGATCAGGGAACGTGGCGTCG  PXR homodimer (NR concentration 270 nM)  PBM binding z-score          -0.0143
21  AGAATGAGGTTATACGTAGATCGGGGAAGAAAGT  PXR homodimer (NR concentration 270 nM)  PBM binding z-score            0.718
22  CCTTACGGGTCACTCCAGGTTATAGCGTCGGAGT  PXR homodimer (NR concentration 270 nM)  PBM binding z-score            0.516
23  GCTTACGGGGCAAAGGTTATAGCATGAATAGAAT  PXR homodimer (NR concentration 270 nM)  PBM binding z-score           0.0717
24  CGAACTAGGTCAAGGACAGTGCATCTCCGCACGC  PXR homodimer (NR concentration 270 nM)  PBM binding z-score            0.348
25  CGTCCAAGTTCATAGGAGGTCAGTGAAGACAGAT  PXR homodimer (NR concentration 270 nM)  PBM binding z-score             9.37
26  GGAACGAGGGCAAAGTTGATAGGATCTGTCGACG  PXR homodimer (NR concentration 270 nM)  PBM binding z-score            0.619
